Biological target: T1, ferroportin endogenously expressed on T47D cells (HTB 133, ATCC) (human, UniProt Q9NP59 1-571)
T1 sequence (looked up): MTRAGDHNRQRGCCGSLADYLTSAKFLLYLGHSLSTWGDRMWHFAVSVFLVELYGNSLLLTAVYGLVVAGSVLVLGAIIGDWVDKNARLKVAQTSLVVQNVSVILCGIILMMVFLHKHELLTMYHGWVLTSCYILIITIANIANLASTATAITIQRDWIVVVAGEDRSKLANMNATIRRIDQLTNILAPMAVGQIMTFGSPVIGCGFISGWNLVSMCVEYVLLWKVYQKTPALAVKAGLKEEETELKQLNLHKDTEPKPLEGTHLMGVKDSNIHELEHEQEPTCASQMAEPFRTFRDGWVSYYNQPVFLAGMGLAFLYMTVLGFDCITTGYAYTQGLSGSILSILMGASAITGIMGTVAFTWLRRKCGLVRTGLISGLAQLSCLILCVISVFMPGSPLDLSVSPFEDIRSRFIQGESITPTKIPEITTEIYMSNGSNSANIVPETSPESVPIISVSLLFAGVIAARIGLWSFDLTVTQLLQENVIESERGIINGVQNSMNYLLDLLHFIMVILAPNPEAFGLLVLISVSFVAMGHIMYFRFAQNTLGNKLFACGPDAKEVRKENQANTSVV
Experiment: cell-based or functional assay
Starred links: 1 amine or outer side, 2 acyl side, 3 side chain; linkers in the order of their positions; H or OH if unused. Non-standard residues stand in square brackets, D forms with d. Groups on a side chain read outwards from the residue. *: point of attachment. PEG11 = NCCOCCOCCOCCOCCOCCOCCOCCOCCOCCOCCOCCC(=O)O; Dip = N[C@H](C(=O)O)C(c1ccccc1)c1ccccc1; γGlu = O=C(O)[C@H](CCC(=O)[*:2])N[*:1]; Palmitoyl = CCCCCCCCCCCCCCCC(=O)*; β3hF = N[C@H](CC(=O)O)Cc1ccccc1; Isovaleryl = CC(C)CC(=O)*
Listing of recorded T47D MSA IC50 by entry.
Report only the number, with the unit nM understood.

Below: 3 binders and their reported T47D MSA IC50.
XETHXPXX (N-term Cyclohexanoic_Acid; Dpa4; Lys(Ahx_Palm)6; C-term N_Butyl_Phe) [Cyclohexanoic_Acid-E-T-H-[Dpa]-P-[Lys(Ahx_Palm)]-N_Butyl_Phe]	54.3
Isovaleryl-ETH[Dip]PAIK([γGlu-Palmitoyl])[β3hF][dK]-NH2 (SMILES CCCCCCCCCCCCCCCC(=O)N[C@@H](CCC(=O)NCCCC[C@H](NC(=O)[C@@H](NC(=O)[C@H](C)NC(=O)[C@@H]1CCCN1C(=O)[C@@H](NC(=O)[C@H](Cc1c[nH]cn1)NC(=O)[C@@H](NC(=O)[C@H](CCC(=O)O)NC(=O)CC(C)C)[C@@H](C)O)C(c1ccccc1)c1ccccc1)[C@@H](C)CC)C(=O)N[C@H](CC(=O)N[C@H](CCCCN)C(N)=O)Cc1ccccc1)C(=O)O) [Isovaleric Acid-E-T-H-[Dpa]-P-A-I-[Lys(IsoGlu_Palm)]-[bhPhe]-[(D)Lys]-NH2]	13.3
XETHXPXX (N-term Isovaleric Acid; Dpa4; Lys(Ahx_Palm)6; C-term N_Pentyl_Phe) [Isovaleric Acid-E-T-H-[Dpa]-P-[Lys(Ahx_Palm)]-N_Pentyl_Phe]	12.7

Which measured T47D MSA IC50 value corresponds to Isovaleryl-ETH[Dip]PAIK([PEG11-Palmitoyl])[β3hF]-NH2 [Isovaleric Acid-E-T-H-[Dpa]-P-A-I-[Lys(2PEG11_Palm)]-[bhPhe]-NH2] ?
1.88
